I'd be grateful if you could share measured GI50 for these entries.
System: OVCAR3 cells
Assay: MTT proliferation assay, OVCAR3;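 further: compound given as an 8- or 10-point series, one day after plating, with exposure covering roughly 3-4 cell doublings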
Assay type: cell-based
Settings: 5 days compound exposure, 1:3 serial dilution starting at 10 μM
*1 amine or outer side, *2 acyl side, *3 side chain or, on linkers, in order; H or OH if unused. Where a SMILES comes first, the peptide text is derived from it. Bridges are numbered along the chain shown (N, C = ends). [ ]: non-standard residue; d: D form. The star is where a group is joined. X200 = CN([C@@H](Cc1cc(F)ccc1C1CCN(C(=O)C2CC2)CC1)C(=O)[*:2])[*:1]; X166 = CN([C@@H](Cc1cc(F)ccc1C1=CC2COCC(C1)N2)C(=O)[*:2])[*:1]; X123 = CN([C@@H](Cc1cc(Cl)ccc1-c1ccc[nH]c1=O)C(=O)[*:2])[*:1]; X216 = CN1CCC(c2ccc(Cl)cc2C[C@@H](C(=O)[*:2])N(C)[*:1])=CC1=O; NMehhhLys(Me) = CN([C@@H](CCCCCCCN(C)[*:3])C(=O)[*:2])[*:1]; cBuCO(3,3-F2-1-CF3) = O=C(C1(C(F)(F)F)CC(F)(F)C1)*; Pro(trans-4-F) = O=C(O)[C@@H]1C[C@@H](F)CN1; Gly(cPr) = N[C@H](C(=O)O)C1CC1

Which GI50 is reported for this compound? CC(C)C[C@@H]1NC(=O)[C@@H](N(C)C(=O)[C@@H](NC(=O)[C@@H]2C[C@@H](F)CN2C(=O)C2(C(F)(F)F)CC(F)(F)C2)C2CC2)CCCCCCCN(C)C(=O)[C@H](Cc2cc(Cl)ccc2C2=CC(=O)N(C)CC2)N(C)C1=O [Example 237] ({cBuCO(3,3-F2-1-CF3)}-[Pro(trans-4-F)][Gly(cPr)][NMehhhLys(Me)]L[X216]; lactam 3-C)
40 nM

Which GI50 is reported for this compound? CC(C)C[C@@H]1NC(=O)[C@@H](N(C)C(=O)[C@@H](NC(=O)[C@@H]2C[C@@H](F)CN2C(=O)C2(C(F)(F)F)CC(F)(F)C2)C2CC2)CCCCCCCN(C)C(=O)[C@H](Cc2cc(F)ccc2C2CCN(C(=O)C3CC3)CC2)N(C)C1=O [Example 101] ({cBuCO(3,3-F2-1-CF3)}-[Pro(trans-4-F)][Gly(cPr)][NMehhhLys(Me)]L[X200]; lactam 3-C)
30 nM

Which GI50 is reported for this compound? CC(C)C[C@@H]1NC(=O)[C@@H](N(C)C(=O)[C@@H](NC(=O)[C@@H]2C[C@@H](F)CN2C(=O)C2(C(F)(F)F)CC(F)(F)C2)C2CC2)CCCCCCCN(C)C(=O)[C@H](Cc2cc(F)ccc2C2=CC3COCC(C2)N3)N(C)C1=O (stereo partly drawn) [Example 166] ({cBuCO(3,3-F2-1-CF3)}-[Pro(trans-4-F)][Gly(cPr)][NMehhhLys(Me)]L[X166]; lactam 3-C)
100 nM

Which GI50 is reported for this compound? CC(C)C[C@@H]1NC(=O)[C@@H](N(C)C(=O)[C@@H](NC(=O)[C@@H]2C[C@@H](F)CN2C(=O)C2(C(F)(F)F)CC(F)(F)C2)C2CC2)CCCCCCCN(C)C(=O)[C@H](Cc2cc(Cl)ccc2-c2ccc[nH]c2=O)N(C)C1=O [Example 208] ({cBuCO(3,3-F2-1-CF3)}-[Pro(trans-4-F)][Gly(cPr)][NMehhhLys(Me)]L[X123]; lactam 3-C)
1960 nM

Which GI50 is reported for this compound? `CC(C)C[C@@H]1NC(=O)[C@@H](N(C)C(=O)[C@@H](NC(=O)[C@@H]2C[C@@H](F)CN2C(=O)C2(C(F)(F)F)CC(F)(F)C2)C2CC2)CC=CCCCCN(C)C(=O)[C@H](Cc2cc(F)cnc2OC2CC2)N(C)C1=O`
310 nM

Which GI50 is reported for this compound? `CC(C)C[C@@H]1NC(=O)[C@@H](N(C)C(=O)[C@@H](NC(=O)[C@@H]2C[C@@H](F)CN2C(=O)C2(C(F)(F)F)CC3(CCC3)C2)C2CC2)CC=CCCCCN(C)C(=O)[C@H](Cc2cc(Cl)ccc2Cl)N(C)C1=O`
550 nM

Which GI50 is reported for this compound? `[2H]C([2H])([2H])n1cc(-c2ccc(Cl)cc2C[C@H]2C(=O)N(C)CCCCCCC[C@H](N(C)C(=O)[C@@H](NC(=O)[C@@H]3C[C@@H](F)CN3C(=O)C3(C(F)(F)F)CC(F)(F)C3)C3CC3)C(=O)N[C@@H](CC(C)C)C(=O)N2C)cn1`
20 nM
